variants and their reported ratio to parent
B1: H2-Kb / Ed9 (parent complex)
chain 1: AQSVTQPDARVTVSEGASLQLRCKYSYFGTPYLFWYVQYPRQGLQLLLKYYPGDPVVQGVNGFEAEFSKSNSSFHLRKASVHWSDWAVYFCAVSITGGYKVVFGSGTRLLVSP
chain 2: DSGVVQSPRHIIKEKGGRSVLTCIPISGHSNVVWYQQTLGKELKFLIQHYEKVERDKGFLPSRFSVQQFDDYHSEMNMSALELEDSAMYFCASSPRQSDYTFGSGTRLLVI
chain 3: not shown
chain 4: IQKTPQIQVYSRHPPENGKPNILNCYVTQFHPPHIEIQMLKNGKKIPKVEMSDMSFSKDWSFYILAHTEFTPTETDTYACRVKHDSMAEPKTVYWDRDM
chain 5: SIINFEKL

# Variants of: B1
# test_summary: % of reporter cells activated (NFAT-GFP), raw; note: test concentration or dose not given here

Look over these answered cases.
mut	ratio to parent
chain 5 I3V	1.12
chain 5 I2G	1.06
chain 5 F5A	1.33
chain 5 K7S	0.969
chain 5 L8W	1
chain 5 F5W	1.22
chain 5 I2K	1
chain 5 E6S	0.469
chain 5 I3A	0.184
chain 5 F5P	0.552

// next entry
Any idea what its ratio to parent is? The variant is chain 5 L8V
0.958

Where these numbers come from: paper PMC11480844
